- Test: Cytotoxicity against human Erythroid progenitor cells assessed as maximum safe concentration after 48 hrs by CellTiter-blue assay
- Type: cell-based
- Reported Conditions: read-out: Activity
In this section, each of the compounds is paired with its reported MNTC at 48 h.
// return numeric value only (unit: µg/mL, not printed)

CCCCCCCCCCCCCCCCCCOP(=O)(CCN1C[C@@H](O)[C@H](O)C1)OC[C@H]1O[C@@H](n2ccc(=O)[nH]c2=O)[C@H](O)[C@@H]1O (stereo partly specified)	15.6

MNTC at 48 h recorded for this compound, CCCCCCCCCCCCCCCCOP(=O)(CCN1C[C@H](O)C[C@H]1CO)OC[C@H]1O[C@@H](n2ccc(=O)[nH]c2=O)[C@H](O)[C@@H]1O (stereo partly specified) , is 62.5

MNTC at 48 h recorded for this compound, CCCCCCCCCCCCCCCCOP(=O)(CCN1C[C@@H](O)[C@H](O)C1)OC[C@H]1O[C@@H](n2ccc(=O)[nH]c2=O)[C@H](O)[C@@H]1O (mixture of isomers) , is 31.2

MNTC at 48 h recorded for this compound, CCCCCCCCCCCCCCCCCCCCOP(=O)(CCN1C[C@@H](O)[C@H](O)C1)OC[C@H]1O[C@@H](n2ccc(=O)[nH]c2=O)[C@H](O)[C@@H]1O (stereo partly specified) , is 15.6

MNTC at 48 h recorded for this compound, CCCCCCCCCCCCCCCCOCCCOP(=O)(CCN1C[C@@H](O)[C@@H](O)[C@@H](O)C1)OC[C@H]1O[C@@H](n2ccc(=O)[nH]c2=O)[C@H](O)[C@@H]1O (stereo partly specified) , is 62.5

====

- Tested on: Staphylococcus aureus
- Test: Antibacterial activity against methicillin-resistant Staphylococcus aureus SR3637
- Type: functional
Measurement Name: MIC (µg/mL)
// return numeric value only (unit: µg/mL, not printed)

CCCCCCCCCCCCCCC[C@H](NC[C@@H](NC(=O)N[C@H](C(=O)O)C(C)C)[C@@H]1CCNC(=N)N1)C(=O)NCCCN[C@H](C(=O)O)[C@H](O[C@@H]1O[C@H](CN)[C@@H](O)[C@H]1O)[C@H]1O[C@@H](n2ccc(=O)[nH]c2=O)[C@H](O)[C@@H]1O	4

From here, focus on the item given below.
MIC recorded for this compound, CCCCCCCCCCCCCCC[C@@H](NC[C@@H](NC(=O)N[C@H](C(=O)O)C(C)C)[C@@H]1CCNC(=N)N1)C(=O)NCCCN[C@H](C(=O)O)[C@H](O[C@@H]1O[C@H](CN)[C@@H](O)[C@H]1O)[C@H]1O[C@@H](n2ccc(=O)[nH]c2=O)[C@H](O)[C@@H]1O , is 4

====

- Test: Cytotoxicity against human Erythroid progenitor cells assessed as maximum safe concentration after 48 hrs by CellTiter-blue assay
- Type: cell-based
- Reported Conditions: read-out: Activity
Measurement Name: MNTC at 48 h (µg/mL)
// return numeric value only (unit: µg/mL, not printed)

Solved entries (count: 4):
CCCCCCCCCCCCCCCCOCCCOP(=O)(CCN1C[C@H](O)C[C@@H](O)C1)OC[C@H]1O[C@@H](n2ccc(=O)[nH]c2=O)[C@H](O)[C@@H]1O (stereo not given in full)	31.2
CCCCCCCCCCCCCCCCOCCCOP(=O)(CCN1C[C@@H](O)[C@H](O)C1)OC[C@H]1O[C@@H](n2ccc(N)nc2=O)[C@H](O)[C@@H]1O (stereo not given in full)	31.2
CCCCCCCCCCCCCCCCOCCCOP(=O)(CCN1C[C@H](O)[C@@H](O)C1)OC[C@H]1O[C@@H](n2ccc(=O)[nH]c2=O)[C@H](O)[C@@H]1O (stereo not given in full)	31.2
CCCCCCCCCCCCCCCCOCCCOP(=O)(CCN1C[C@@H](O)[C@H](O)C1)OC[C@H]1O[C@@H](n2ccc(=O)[nH]c2=O)[C@H](O)[C@@H]1O (stereo not given in full)	62.5

From here, focus on the item given below.
MNTC at 48 h recorded for this molecule, CCCCCCCCCCCCCCOP(=O)(CCN1C[C@@H](O)[C@H](O)C1)OC[C@H]1O[C@@H](n2ccc(=O)[nH]c2=O)[C@H](O)[C@@H]1O (stereo not given in full) , is 31.2

====

In this section, each of the compounds is paired with its reported MIC.
- Tested on: Bacillus subtilis
- Test: Antibacterial activity against Bacillus subtilis after 24 to 48 hrs by microdilution method
- Format: functional
// return numeric value only (unit: µg/mL, not printed)

Solved entries (count: 5):
CCCCCCCCCCCCCCCCOP(=O)(CCN1C[C@@H](O)[C@H](O)C1)OC[C@H]1O[C@@H](n2ccc(=O)[nH]c2=O)[C@H](O)[C@@H]1O (mixture of isomers)	3.13
CCCCCCCCCCCCCCCCOCCCOP(=O)(CCN1C[C@H](O)C[C@@H](O)C1)OC[C@H]1O[C@@H](n2ccc(=O)[nH]c2=O)[C@H](O)[C@@H]1O (some centres undefined)	100
CCCCCCCCCCCCCCCCCCOP(=O)(CCN1C[C@@H](O)[C@H](O)C1)OC[C@H]1O[C@@H](n2ccc(=O)[nH]c2=O)[C@H](O)[C@@H]1O (some centres undefined)	6.25
CCCCCCCCCCCCCCCCOCCCOP(=O)(CCN1C[C@@H](O)[C@H](O)C1)OC[C@H]1O[C@@H](n2ccc(=O)[nH]c2=O)[C@H](O)[C@@H]1O (some centres undefined)	6.25
CCCCCCCCCCCCCCCCOP(=O)(CCN1C[C@H](O)C[C@H]1CO)OC[C@H]1O[C@@H](n2ccc(=O)[nH]c2=O)[C@H](O)[C@@H]1O (some centres undefined)	3.13

MIC recorded for this compound, CN(C)[C@@H]1C(O)=C(C(N)=O)C(=O)[C@@]2(O)C(O)=C3C(=O)c4c(O)cccc4[C@@](C)(O)[C@H]3C[C@@H]12 [TETRACYCLINE] , is 2

MIC recorded for this compound, CCCCCCCCCCCCCCCCOCCCOP(=O)(CCN1C[C@@H](O)[C@H](O)C1)OC[C@H]1O[C@@H](n2ccc(N)nc2=O)[C@H](O)[C@@H]1O (some centres undefined) , is 3.13

MIC recorded for this compound, CCCCCCCCCCCCCCOP(=O)(CCN1C[C@@H](O)[C@H](O)C1)OC[C@H]1O[C@@H](n2ccc(=O)[nH]c2=O)[C@H](O)[C@@H]1O (some centres undefined) , is 6.25

MIC recorded for this compound, CCCCCCCCCCCCCCCCOCCCOP(=O)(CCN1C[C@H](O)[C@@H](O)C1)OC[C@H]1O[C@@H](n2ccc(=O)[nH]c2=O)[C@H](O)[C@@H]1O (some centres undefined) , is 6.25

====

In this section, each of the compounds is paired with its reported MIC.
- Test system: Enterococcus faecium
- Test: Antibacterial activity against vancomycin-resistant Enterococcus faecium SR7917
- Format: functional
// return numeric value only (unit: µg/mL, not printed)

CCCCCCCCCCCCCCC[C@H](NC[C@@H](NC(=O)N[C@H](C(=O)O)C(C)C)[C@@H]1CCNC(=N)N1)C(=O)NCCCN[C@H](C(=O)O)[C@H](O[C@@H]1O[C@H](CN)[C@@H](O)[C@H]1O)[C@H]1O[C@@H](n2ccc(=O)[nH]c2=O)[C@H](O)[C@@H]1O	2

Item: CCCCCCCCCCCCCCC[C@@H](NC[C@@H](NC(=O)N[C@H](C(=O)O)C(C)C)[C@@H]1CCNC(=N)N1)C(=O)NCCCN[C@H](C(=O)O)[C@H](O[C@@H]1O[C@H](CN)[C@@H](O)[C@H]1O)[C@H]1O[C@@H](n2ccc(=O)[nH]c2=O)[C@H](O)[C@@H]1O | System: Enterococcus faecium | MIC: 0.25

====

- System: Enterococcus faecium
- Test: Antibacterial activity against vancomycin-resistant Enterococcus faecium SR7917
- Assay type: functional
Measurement Name: MIC

Solved entries (count: 2):
CN[C@H](CC(C)C)C(=O)N[C@H]1C(=O)N[C@@H](CC(N)=O)C(=O)N[C@H]2C(=O)N[C@H]3C(=O)N[C@H](C(=O)N[C@H](C(=O)O)c4cc(O)cc(O)c4-c4cc3ccc4O)[C@H](O)c3ccc(c(Cl)c3)Oc3cc2cc(c3O[C@@H]2O[C@H](CO)[C@@H](O)[C@H](O)[C@H]2O[C@H]2C[C@](C)(N)[C@H](O)[C@H](C)O2)Oc2ccc(cc2Cl)[C@H]1O	> 64 µg/mL
CC(C)C[C@H](NC(=O)[C@@H](NC(=O)N[C@H](C(=O)O)C(C)C)[C@@H]1CCNC(=N)N1)C(=O)NCCCN[C@H](C(=O)O)[C@H](O[C@@H]1O[C@H](CN)[C@@H](O)[C@H]1O)[C@H]1O[C@@H](n2ccc(=O)[nH]c2=O)[C@H](O)[C@@H]1O [MURAMYCIN D2]	> 64 µg/mL

From here, focus on the item given below.
MIC recorded for this molecule, CC(C)C[C@@H](NC[C@@H](NC(=O)N[C@H](C(=O)O)C(C)C)[C@@H]1CCNC(=N)N1)C(=O)NCCCN[C@H](C(=O)O)[C@H](O[C@@H]1O[C@H](CN)[C@@H](O)[C@H]1O)[C@H]1O[C@@H](n2ccc(=O)[nH]c2=O)[C@H](O)[C@@H]1O , is > 64 µg/mL

The values you see were collected from ChEMBL document CHEMBL1921744.
